Quick reference for IC50 among some compounds
Target desc: UniProtKB P56373
Sequence (P56373 whole entry): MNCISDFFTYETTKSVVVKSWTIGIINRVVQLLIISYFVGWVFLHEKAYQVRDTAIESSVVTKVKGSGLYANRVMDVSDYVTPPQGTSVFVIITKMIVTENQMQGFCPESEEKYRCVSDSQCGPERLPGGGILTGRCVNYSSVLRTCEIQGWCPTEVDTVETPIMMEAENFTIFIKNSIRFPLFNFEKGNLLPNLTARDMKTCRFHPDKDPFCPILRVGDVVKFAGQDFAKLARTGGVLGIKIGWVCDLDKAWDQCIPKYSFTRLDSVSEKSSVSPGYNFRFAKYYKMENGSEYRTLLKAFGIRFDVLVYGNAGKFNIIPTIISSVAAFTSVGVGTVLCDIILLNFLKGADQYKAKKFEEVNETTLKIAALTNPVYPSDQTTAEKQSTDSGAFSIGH
Test description: Evaluation of human P2X3 receptor inhibitory activity (Test Example 1-1, FDSS 3000, 96-well, 50 nM ATP)
Format: cell-based
Experimental parameters: human P2X3 receptor in C6BU-1 cells; Test Example 1-1 (compounds I-001 to I-300)
A number alone suffices; assume nM.

// below: answered compounds
> print(dat)
                                   compound       target.desc  recorded.endpoint  number
1  O=c1c(-c2cccnc2O)c[nH]/c(=N\c2ccc(Oc3ccon3)cc2)n1Cc1ccc(Cl)cc1 [Compound I-194]  UniProtKB P56373               IC50     658
2  CCc1oc2ccc(Nc3nc(=O)c(C(=O)O)cn3Cc3ccc(Cl)cc3)cc2c1C [Compound I-017]  UniProtKB P56373               IC50     401
3  CCn1c(=O)cc(Nc2ccc(Oc3cccc(C(=O)O)n3)cn2)n(Cc2ccc(Cl)cc2)c1=O [Compound I-125]  UniProtKB P56373               IC50      23
4  O=C(O)c1c[nH]/c(=N\c2ccc(Oc3cccc(F)n3)cc2)n(Cc2ccc(Cl)cc2)c1=O [Compound I-029]  UniProtKB P56373               IC50     236
5  CCn1c(=O)cc(Nc2ccc(Oc3cccc(C#N)c3)c(C)n2)n(Cc2ccc(Cl)cc2)c1=O [Compound I-246]  UniProtKB P56373               IC50      71

Query IC50 on UniProtKB P56373 for CC(=O)Nc1cnc(Nc2ccc(Oc3cccc(F)n3)cc2)n(Cc2ccc(Cl)cc2)c1=O [Compound I-070]
28

What value of IC50 on UniProtKB P56373 does CCn1c(=O)cc(Nc2ccc(Oc3ccc(C(=O)O)nn3)cc2)n(Cc2ccc(Cl)cc2)c1=O [Compound I-174] have?
36

Hello, I am looking for reported IC50 with UniProtKB P56373 for Cc1ccc(Cn2cc(C(=O)NC3CCOCC3)c(=O)nc2Nc2ccc(Oc3cccc(F)n3)cc2)cc1 [Compound I-282] . Could you help?
6

For the record CCc1oc2ccc(Nc3nc(=O)c(C(=O)NC4CCOCC4)cn3Cc3ccc(Cl)cc3)cc2c1C [Compound I-021] , what value of IC50 is listed for UniProtKB P56373?
20

Hi! What's the reported IC50 for CCn1c(=O)cc(Nc2ccc(Oc3ccc(C(=O)OC)cc3)cn2)n(Cc2ccc(Cl)cc2)c1=O [Compound I-052] on UniProtKB P56373?
21

So what IC50 did CCc1oc2ccc(Nc3ncc(NC(=O)C4CCOCC4)c(=O)n3Cc3ccc(Cl)cc3)cc2c1C [Compound I-077] get with UniProtKB P56373?
191

# returns recorded IC50 (system: UniProtKB P56373) for CCc1c[nH]/c(=N\c2ccc(Oc3cccc(C#N)n3)c(C)c2)n(Cc2ccc(Cl)cc2)c1=O [Compound I-130]
32

# returns recorded IC50 (system: UniProtKB P56373) for O=C(Nc1cnc(Nc2ccc(Oc3cccc(F)n3)cc2)n(Cc2ccc(Cl)cc2)c1=O)C1CCOCC1 [Compound I-134]
2

Look up IC50 with UniProtKB P56373 for this compound: CCOC(=O)c1c[nH]/c(=N\c2ccc(Oc3cccc(F)n3)c(C)c2)n(Cc2ccc(Cl)cc2)c1=O [Compound I-112]
24

Entry O=C(NC1CCOCC1)c1c[nH]/c(=N\c2ccc(Oc3cccc(F)n3)cc2)n(Cc2ccc(Cl)cc2)c1=O [Compound I-042] , system UniProtKB P56373: what IC50 was measured?
14
